assay_explanation: qHTS of pediatric cancer cell lines to identify multiple opportunities for drug repurposing: Primary screen for Rh18 cells (AID 1347102); further: nearly all actives have a fitted effect of over 65% in size
measurement_context: Rh18 rhabdomyosarcoma viability, CellTiter-Glo luminescence, 48 h; series mostly up to 46 µM
Records with an inconclusive call do not appear. Activity calls are given as the source filed them. The call rests on the fitted dose curve; in most records, active means well fitted cell-killing curve with a large enough effect; inconclusive means small, poorly fitted or top-dose-only effect; inactive means flat fitted curve, though single readings scatter.
Can you answer with just one of these options? yes = active, no = inactive

Examples with answers:
COc1cc2nc(N3CCN(C(=O)C4CCCO4)CC3)nc(N)c2cc1OC (stereo unspecified); no
CCN(CC)CCOc1ccc(Cc2ccccc2)cc1; no
CCOC(=O)C1=C(O)C(=O)N(Cc2ccccc2)C1; no
N=C(N)c1ccc2cc(OC(=O)c3ccc(N=C(N)N)cc3)ccc2c1; no
Nc1nc(N)c(N=O)c(OCC2CCCCC2)n1; yes

## Input Tell me the assay call for "Cc1ccc(C(=O)c2cc(O)c(O)c([N+](=O)[O-])c2)cc1" please.
## Output no

## Input Tell me the assay call for "C[C@H](Cc1ccc(O)c(O)c1)[C@@H](C)Cc1ccc(O)c(O)c1" please.
## Output yes

## Input Tell me the assay call for "CC(C)Oc1ccc2c(=O)c(-c3ccccc3)coc2c1" please.
## Output no

====

assay_explanation: qHTS drug screen for cell cycle checkpoint inhibitors in PARPi-resistant BRCA-mutant ovarian cancer cell lines. (AID 1963452)
measurement_context: PEO1/OlaR viability, CellTiter-Glo luminescence, 96 h; stronger effect = lower value
value_kind: Z-AUC
Write the number on its own, no unit after it.

Here are 5 compounds together with their reported answers.
CC1=C(C)C(=O)C(C(CCCCCC(=O)O)c2ccccc2)=C(C)C1=O (centres undefined); 0.121
CCCCCCCCCCCCCCCCCCCCCCO; 0.761
O=C(CCc1ccc(O)cc1)c1c(O)cc(O)cc1O; -0.868
CCN(CC)C(=S)SSC(=S)N(CC)CC; 0.318
O=C1c2c(O)cc(O)cc2OC(c2ccc(O)c(O)c2)C1O (centres undefined); -0.835

## Input What value of measured Z-AUC is listed for CCN(CCO)CCCC(C)Nc1ccnc2cc(Cl)ccc12 (centres undefined) ?
## Output 1.8

## Input What value of measured Z-AUC is listed for "O=c1oc2cc(O)ccc2s1" ?
## Output 0.214

## Input What value of measured Z-AUC is listed for "CN(C)C(=O)COC(=O)Cc1ccc(OC(=O)c2ccc(N=C(N)N)cc2)cc1" ?
## Output -0.267

## Input What value of measured Z-AUC is listed for "Cc1cc2c(s1)Nc1ccccc1N=C2N1CCN(C)CC1" ?
## Output -0.767

## Input What value of measured Z-AUC is listed for "CCOc1cc(CC(=O)N[C@@H](CC(C)C)c2ccccc2N2CCCCC2)ccc1C(=O)O" ?
## Output 0.686

## Input What value of measured Z-AUC is listed for "C[C@H](Cc1ccc(O)c(O)c1)[C@@H](C)Cc1ccc(O)c(O)c1" ?
## Output 1.18

## Input What value of measured Z-AUC is listed for "O=C(O)CCNC(=O)c1ccc(N=Nc2ccc(O)c(C(=O)O)c2)cc1" ?
## Output -0.101

## Input What value of measured Z-AUC is listed for "O=C1CCc2ccc(OCCCCN3CCN(c4cccc(Cl)c4Cl)CC3)cc2N1" ?
## Output -1.31

## Input What value of measured Z-AUC is listed for "O=P(O)(O)C(O)(Cn1ccnc1)P(=O)(O)O" ?
## Output 1.02

## Input What value of measured Z-AUC is listed for "O=C(O)c1cn(-c2ccc(F)cc2)c2cc(N3CCNCC3)c(F)cc2c1=O" ?
## Output 0.692

## Input What value of measured Z-AUC is listed for "Cc1nc(Nc2ncc(C(=O)Nc3c(C)cccc3Cl)s2)cc(N2CCN(CCO)CC2)n1" ?
## Output -3.38

## Input What value of measured Z-AUC is listed for "O=c1c(O)c(-c2ccc(O)cc2O)oc2cc(O)cc(O)c12" ?
## Output 1.32

## Input What value of measured Z-AUC is listed for "C[C@@H](c1ncncc1F)[C@](O)(Cn1cncn1)c1ccc(F)cc1F" ?
## Output -0.415

====

Test system: CP305
assay_explanation: qHTS profiling for inhibitors of Plasmodium falciparum proliferation (AID 504749); further: nearly all actives have a fitted effect of over 60% in size; further: potency means the concentration at half of the fitted maximal effect
measurement_context: P. falciparum in erythrocytes, SYBR Green DNA, 72 h; series mostly up to 28.7 µM
Inconclusive results are not listed. Activity calls are given as the source filed them. Calls come from the whole dose curve; as a rule, active = well fitted inhibition curve with a large enough effect; inconclusive = small, poorly fitted or top-dose-only effect; inactive = flat fitted curve, though single readings scatter.
value_kind: Potency

Here are 6 compounds together with their reported answers.
Clc1ccc(C(Cn2ccnc2)OCc2ccsc2Cl)c(Cl)c1 (configuration not stated); 12 µM (active)
O=C1CCc2ccc(OCCCCN3CCN(c4cccc(Cl)c4Cl)CC3)cc2N1; inactive
CCC1=C(C)CN(C(=O)NCCc2ccc(S(=O)(=O)NC(=O)NC3CCC(C)CC3)cc2)C1=O (configuration not stated); inactive
c1ccc2[nH]c(-c3cscn3)nc2c1; inactive
N=C(N)c1ccc2cc(OC(=O)c3ccc(N=C(N)N)cc3)ccc2c1; 4.78 µM (active)
O=C(O)c1cccc(-c2noc(-c3ccccc3F)n2)c1; inactive

Kindly review the next compound as well.
## Input What value of measured Potency is listed for Cc1c(OCC(F)(F)F)ccnc1CS(=O)c1nc2ccccc2[nH]1 (configuration not stated) ?
## Output inactive

====

assay_explanation: qHTS of pediatric cancer cell lines to identify multiple opportunities for drug repurposing: Primary screen for A673 cells (AID 1347092); further: nearly all actives have a fitted effect of over 45% in size
measurement_context: A673 Ewing sarcoma viability, CellTiter-Glo ATP luminescence, 48 h; series mostly up to 46 µM
Inconclusive results are not listed. Active and inactive are the calls of the source. The call rests on the fitted dose curve; in most records, active means well fitted cell-killing curve with a large enough effect; inconclusive means small, poorly fitted or top-dose-only effect; inactive means no such curve, though single readings can be large or run the other way.
Can you answer with just one of these options? 1 (yes) = active, 0 (no) = inactive

Cc1cccc(C)c1OCC(=O)N[C@@H](Cc1ccccc1)[C@@H](O)C[C@H](Cc1ccccc1)NC(=O)[C@H](C(C)C)N1CCCNC1=O; 1 (yes)
Cc1nccn1CC1CCc2c(c3ccccc3n2C)C1=O (stereo not drawn); 0 (no)
CC(C)Oc1ccc2c(=O)c(-c3ccccc3)coc2c1; 0 (no)
Cc1ncc([N+](=O)[O-])n1CC(C)O (stereo not drawn); 0 (no)
Nc1nc(N)c(N=O)c(OCC2CCCCC2)n1; 1 (yes)

## Input Tell me the assay call for "CS(=O)(=O)OCCCCOS(C)(=O)=O" please.
## Output 0 (no)

## Input Tell me the assay call for O=C1c2c(O)cc(O)cc2OC(c2ccc(O)c(O)c2)C1O (stereo not drawn) please.
## Output 0 (no)

## Input Tell me the assay call for "COc1c2occc2cc2ccc(=O)oc12" please.
## Output 0 (no)

## Input Tell me the assay call for "CN1C(C(=O)Nc2ccccn2)=C(O)c2sccc2S1(=O)=O" please.
## Output 0 (no)

## Input Tell me the assay call for "CCOC(=O)c1c(C)n(C)c2ccc(O)cc12" please.
## Output 0 (no)

## Input Tell me the assay call for "Cc1ccc(C(=O)c2cc(O)c(O)c([N+](=O)[O-])c2)cc1" please.
## Output 1 (yes)

## Input Tell me the assay call for "O=C(O)c1cn(-c2ccc(F)cc2)c2cc(N3CCNCC3)c(F)cc2c1=O" please.
## Output 0 (no)

## Input Tell me the assay call for "COc1c(O)cc2c(c1O)[C@@H]1O[C@H](CO)[C@@H](O)[C@H](O)[C@H]1OC2=O" please.
## Output 0 (no)

====

assay_explanation: qHTS of pediatric cancer cell lines to identify multiple opportunities for drug repurposing: Primary screen for DAOY cells (AID 1347090); further: nearly all actives have a fitted effect of over 55% in size; further: potency means the concentration at half of the fitted maximal effect
measurement_context: DAOY medulloblastoma viability, CellTiter-Glo luminescence, 48 h; series mostly up to 46 µM
Inconclusive results are not listed. Calls of active or inactive are those of the source. Calls follow the shape of the dose curve; as a rule, active = well fitted cell-killing curve with a large enough effect; inconclusive = small, poorly fitted or top-dose-only effect; inactive = flat fitted curve, though single readings scatter. Non-standard residues stand in square brackets, D forms with d. Residues, ends and D or L forms follow the SMILES beside them. *: point of attachment. Sta = CC(C)C[C@H](N)[C@@H](O)CC(=O)O; Isovaleryl = CC(C)CC(=O)*
value_kind: Potency

CC(C)C[C@H](NC(=O)[C@H](Cc1ccccc1)NC(=O)c1cnccn1)B(O)O; 29.6 nM (active)
Cc1nc(-c2ccc(OCC(C)C)c(C#N)c2)sc1C(=O)O; inactive
C[C@@H](N)C1CCC(C(=O)Nc2ccncc2)CC1 (stereo not given in full); inactive
CC(C)CC(=O)N[C@H](C(=O)N[C@H](C(=O)N[C@@H](CC(C)C)[C@@H](O)CC(=O)N[C@@H](C)C(=O)N[C@@H](CC(C)C)[C@@H](O)CC(=O)O)C(C)C)C(C)C (Isovaleryl-VV[Sta]A[Sta]-OH); inactive

## Input What value of measured Potency is listed for "CCOc1cc(CC(=O)N[C@@H](CC(C)C)c2ccccc2N2CCCCC2)ccc1C(=O)O" ?
## Output inactive

====

assay_explanation: Quantitative High-Throughput drug screen in 47 multiple myeloma cell lines against the NCATS MIPE library collection: Karpas25_ECACC cell viability assay (AID 1918968; further: nearly all actives have a fitted effect of over 35% in size)
measurement_context: Karpas25 myeloma viability, CellTiter-Glo ATP, 48 h; series mostly up to 45.8 µM
Results filed as inconclusive are left out. The source made the active and inactive calls. The call rests on the fitted dose curve; in most records, active means well fitted cell-killing curve with a large enough effect; inconclusive means small, poorly fitted or top-dose-only effect, or effect the other way; inactive means no such curve, though single readings can be large or run the other way.
Can you answer with just one of these options? active, inactive

C[C@@H](N)C1CCC(C(=O)Nc2ccncc2)CC1 (some centres undefined); active

## Input Tell me the assay call for "C=CCc1cc(OC)c(O)c(C(=O)NCCO)c1" please.
## Output inactive

## Input Tell me the assay call for "O=C(CCc1ccc(O)cc1)c1c(O)cc(O)cc1O" please.
## Output active

## Input Tell me the assay call for "CC1(C)C(=O)N(CCN2CCC(C(=O)c3ccc(F)cc3)CC2)c2ccccc21" please.
## Output active

Data origin, for the record: PubChem BioAssay (NCATS)
